Listed molecules paired with reported EPSA
# measurement.notes: physchem
Positions of bridges follow the written chain, without caps; N, C: chain ends. Non-standard residues stand in square brackets, D forms with d. Residues, ends and D or L forms follow the SMILES beside them. Lys(N3) = [N-]=[N+]=NCCCC[C@H](N)C(=O)O; R8 = C=CCCCCCC[C@@](C)(N)C(=O)O; Cba = N[C@@H](CC1CCC1)C(=O)O; S5 = C=CCCC[C@](C)(N)C(=O)O; βAla = NCCC(=O)O
Give the number; A^2 is assumed, so skip it.

molecule	EPSA / A^2
CC(=O)N[C@@H](CCCCN=[N+]=[N-])C(=O)NCCC(=O)N[C@@H](CC(C)C)C(=O)N[C@H](C(=O)N[C@@H](Cc1ccccc1)C(=O)N[C@]1(C)CCCCCCC=CCCC[C@@](C)(C(=O)N[C@@H](C)C(=O)N[C@@H](C)C(=O)N[C@@H](C)C(N)=O)NC(=O)[C@H](CC2CCC2)NC(=O)[C@H](CCC(N)=O)NC(=O)[C@H](C)NC(=O)[C@H](Cc2c[nH]c3ccccc23)NC(=O)[C@H](Cc2ccc(O)cc2)NC(=O)[C@H](C)NC1=O)[C@@H](C)O [MP-8965] (Ac-[Lys(N3)][βAla]LTF[R8]AYWAQ[Cba][S5]AAA-NH2; staple 6-13)	205
CC(=O)N[C@@H](CC(C)C)C(=O)N[C@H](C(=O)N[C@@H](Cc1ccccc1)C(=O)N[C@]1(C)CCCCCCC=CCCC[C@@](C)(C(=O)N[C@@H](CO)C(=O)N[C@@H](C)C(=O)N[C@@H](C)C(N)=O)NC(=O)[C@H](CC2CCC2)NC(=O)[C@H](CC(C)C)NC(=O)[C@H](CCC(N)=O)NC(=O)[C@H](Cc2c[nH]c3ccccc23)NC(=O)[C@H](Cc2ccc(O)cc2)NC(=O)[C@H](Cc2c[nH]cn2)NC1=O)[C@@H](C)O [MP-199, ATSP-7041 (E5H)] (Ac-LTF[R8]HYWQL[Cba][S5]SAA-NH2; staple 4-11)	201
CC(=O)N[C@@H](Cc1c[nH]cn1)C(=O)N[C@H](C(=O)N[C@@H](Cc1ccccc1)C(=O)N[C@]1(C)CCCCCCC=CCCC[C@@](C)(C(=O)N[C@@H](CO)C(=O)N[C@@H](C)C(=O)N[C@@H](C)C(N)=O)NC(=O)[C@H](CC2CCC2)NC(=O)[C@H](CC(C)C)NC(=O)[C@H](CCC(N)=O)NC(=O)[C@H](Cc2c[nH]c3ccccc23)NC(=O)[C@H](Cc2ccc(O)cc2)NC(=O)[C@H](CCC(=O)O)NC1=O)[C@@H](C)O [MP-197, ATSP-7041 (L1H)] (Ac-HTF[R8]EYWQL[Cba][S5]SAA-NH2; staple 4-11)	222

Fill in reported EPSA for this entry: CC(=O)N[C@@H](CCCCN=[N+]=[N-])C(=O)NCCC(=O)N[C@@H](CC(C)C)C(=O)N[C@H](C(=O)N[C@@H](Cc1ccccc1)C(=O)N[C@]1(C)CCCCCCC=CCCC[C@@](C)(C(=O)N[C@@H](CO)C(=O)N[C@@H](C)C(=O)N[C@@H](C)C(N)=O)NC(=O)[C@H](CC2CCC2)NC(=O)[C@H](Cc2c[nH]cn2)NC(=O)[C@H](C)NC(=O)[C@H](Cc2c[nH]c3ccccc23)NC(=O)[C@H](Cc2ccc(O)cc2)NC(=O)[C@H](CCC(=O)O)NC1=O)[C@@H](C)O [MP-176, AZIDE-ATSP-7041 (Q9H)]
222

Fill in reported EPSA for this entry: CC(=O)N[C@@H](CC(C)C)C(=O)N[C@H](C(=O)N[C@@H](Cc1ccccc1)C(=O)N[C@]1(C)CCCCCCC=CCCC[C@@](C)(C(=O)N[C@@H](CO)C(N)=O)NC(=O)[C@H](CC2CCC2)NC(=O)[C@H](CC(C)C)NC(=O)[C@H](CCC(N)=O)NC(=O)[C@H](Cc2c[nH]c3ccccc23)NC(=O)[C@H](Cc2ccc(O)cc2)NC(=O)[C@H](CCC(=O)O)NC1=O)[C@@H](C)O [MP-204] (Ac-LTF[R8]EYWQL[Cba][S5]S-NH2; staple 4-11)
216

Fill in reported EPSA for this entry: CC(=O)N[C@@H](CCCCN=[N+]=[N-])C(=O)NCCC(=O)N[C@@H](CC(C)C)C(=O)N[C@H](C(=O)N[C@@H](Cc1ccccc1)C(=O)N[C@]1(C)CCCCCCC=CCCC[C@@](C)(C(=O)N[C@@H](CO)C(=O)N[C@@H](C)C(=O)N[C@@H](C)C(N)=O)NC(=O)[C@H](CC2CCC2)NC(=O)[C@H](CCC(N)=O)NC(=O)C(C)(C)NC(=O)[C@H](Cc2c[nH]c3ccccc23)NC(=O)[C@H](Cc2ccc(O)cc2)NC(=O)[C@H](CCC(=O)O)NC1=O)[C@@H](C)O [MP-170]
225

Fill in reported EPSA for this entry: CC(=O)N[C@@H](CC(C)C)C(=O)N[C@H](C(=O)N[C@@H](Cc1ccccc1)C(=O)N[C@]1(C)CCCCCCC=CCCC[C@@](C)(C(=O)N[C@@H](CO)C(=O)N[C@@H](C)C(=O)N[C@@H](C)C(N)=O)NC(=O)[C@@H](CC2CCC2)NC(=O)[C@H](CC(C)C)NC(=O)[C@H](CCC(N)=O)NC(=O)[C@H](Cc2c[nH]c3ccccc23)NC(=O)[C@H](Cc2ccc(O)cc2)NC(=O)[C@H](CCC(=O)O)NC1=O)[C@@H](C)O [MP-009]
204

Fill in reported EPSA for this entry: CC(=O)N[C@@H](CCCCN=[N+]=[N-])C(=O)NCCC(=O)N[C@@H](CC(C)C)C(=O)N[C@H](C(=O)N[C@@H](Cc1ccccc1)C(=O)N[C@]1(C)CCCCCCC=CCCC[C@@](C)(C(=O)N[C@@H](CO)C(=O)N[C@@H](C)C(=O)N[C@@H](C)C(N)=O)NC(=O)[C@H](CC2CCC2)NC(=O)[C@H](CCC(N)=O)NC(=O)[C@H](C)NC(=O)[C@H](Cc2c[nH]c3ccccc23)NC(=O)[C@H](Cc2ccc(O)cc2)NC(=O)[C@H](CCCCN)NC1=O)[C@@H](C)O [MP-548, AZIDE-ATSP-7041 (E5K)]
213

Fill in reported EPSA for this entry: CC(=O)N[C@@H](CCCCN=[N+]=[N-])C(=O)NCCC(=O)N[C@@H](CC(C)C)C(=O)N[C@H](C(=O)N[C@@H](Cc1ccccc1)C(=O)N[C@]1(C)CCCCCCC=CCCC[C@@](C)(C(=O)N[C@@H](CCC(=O)O)C(=O)N[C@@H](C)C(=O)N[C@@H](C)C(N)=O)NC(=O)[C@H](CC2CCC2)NC(=O)[C@H](CCC(N)=O)NC(=O)[C@H](C)NC(=O)[C@H](Cc2c[nH]c3ccccc23)NC(=O)[C@H](Cc2ccc(O)cc2)NC(=O)[C@H](CCC(=O)O)NC1=O)[C@@H](C)O [MP-182]
251
